- Target or test system: MDM2 (In-house, 41 kD) (UniProt Q00987)
- Sequence (Q00987 1-125 limits assumed): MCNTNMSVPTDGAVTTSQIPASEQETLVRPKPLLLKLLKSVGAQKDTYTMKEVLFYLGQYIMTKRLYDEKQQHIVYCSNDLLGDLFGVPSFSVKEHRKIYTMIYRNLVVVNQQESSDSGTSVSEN
- Experiment: competitive fluorescence polarization, displacement of FAM-labeled linear peptide from MDM2; grade decoded by the scale of Table 4
Experimental readout: Ki

Task: Return reported Ki. Input binder: LTFAEYWAQLAAAAAAA (not fully specified; N-terminal acetyl; $r8 at 4 crosslinked by all-carbon olefin staple to $ at 11; pY at 6 (abbreviation not defined in the filing); D-Ala (a) at C-terminus; C-terminal amide) [SP615, Ac-LTF$r8EpYWAQL$AAAAAa-NH2]
Output: < 10 nM

Recorded values, source patent US20200369728A1.
